Reference source for all entries: the METLIN SMRT retention time set (Domingo-Almenara et al. 2019)

Readings of RP-LC retention time for the listed molecules
Assay: gradient 5% acetonitrile 3 min, to 50% in 2 min, to 85% in 15 min, held 3 min, 100 µL/min
Conditions: column: Zorbax Extend-C18 2.1 x 50 mm; eluents: water / acetonitrile, 0.1% formic acid
The reply should contain only the number, in s.

Below, 3 molecules whose answers are already recorded.
Input: Fill blank: measured RP-LC retention time of the molecule COc1ccc(N2CCN(S(=O)(=O)c3cc(-c4cc(C(F)(F)F)[nH]n4)sc3C)CC2)cc1 is ____.
Output: 1090

Input: Same question, CC(C)CN1CCCCc2cc(C(=O)NC3CCS(=O)(=O)C3)sc21 (stereo not given) this time
Output: 941

Input: Same question, O=C(Cc1nc(-c2ccccc2)n[nH]1)Nc1ccc(Cl)cc1 this time
Output: 789

---
Input: Fill blank: measured RP-LC retention time of the molecule CN(C)C(=O)c1cc2c(s1)CCC(C(=O)NCc1ccccc1)C2 (stereo not given) is ____.
Output: 628

Input: Same question, CCC(=O)Nc1ccc(CCc2nc3ccc(C(=O)NC(c4cccs4)C(C)C)cc3[nH]2)cc1 (stereo not given) this time
Output: 702

Input: Same question, O=C(Nc1cccc(Br)c1)c1cccn1Cc1noc(C2CC2)n1 this time
Output: 1040

Input: Same question, Cc1ccc(-c2noc(Cn3ccn(-c4cc(C)cc(C)c4)c(=O)c3=O)n2)cc1 this time
Output: 612

Input: Same question, O=C(Nc1nccs1)C1CCN(C(=O)c2cnn(-c3ccccc3)n2)CC1 this time
Output: 743

Input: Same question, C=Cc1ccc(Cn2cc(S(=O)(=O)N3CCOCC3)ccc2=O)cc1 this time
Output: 825

Input: Same question, CCN1CCN(CCNC(=O)c2ccc3c(c2)NC(=O)C2CCCCN32)CC1 (stereo not given) this time
Output: 574

----------
Assay: gradient 5% acetonitrile 3 min, to 50% in 2 min, to 85% in 15 min, held 3 min, 100 µL/min
Conditions: column: Zorbax Extend-C18 2.1 x 50 mm; eluents: water / acetonitrile, 0.1% formic acid
Recorded Endpoint: RP-LC retention time (s)
The reply should contain only the number, in s.

Input: Fill blank: measured RP-LC retention time of the compound COc1cc(-c2nc3ncccn3c2Nc2ccccc2)ccc1O is ____.
Output: 633

Input: Same question, COc1ccccc1OCCNC(=O)CCc1nnc2c3cc(-c4ccc(F)cc4)nn3ccn12 this time
Output: 752

Input: Same question, Cc1ccccc1NC(=O)N1CCC(c2cc3n(n2)CCCN(C)C3=O)CC1 this time
Output: 660

Input: Same question, COc1ccc(-c2nc3sc(C(=O)N(C)C)c(C)n3c2NC(C)(C)C)cc1 this time
Output: 742

Input: Same question, O=C(Nc1ccc2c(c1)OCCO2)c1c(O)c2cccnc2n(-c2ccc(F)cc2)c1=O this time
Output: 1120

---
Input: Fill blank: measured RP-LC retention time of the compound COc1ccc(C2(c3nc(C4CC(=O)N(c5ccc(C)cc5)C4)no3)CC2)cc1 (centres undefined) is ____.
Output: 1060

Input: Same question, Cc1ccc2c(c1)N(S(C)(=O)=O)CCC(C(=O)Nc1ccccc1C(C)C)O2 (centres undefined) this time
Output: 1020

Input: Same question, Cc1ccc(Cn2nc3ccc(S(=O)(=O)N4CCSCC4)cn3c2=O)cc1C this time
Output: 1000

Input: Same question, O=C1COc2cc(S(=O)(=O)N3CCC(C(=O)N4CCc5ccccc54)CC3)c(Cl)cc2N1 this time
Output: 844
